The reported numbers originate from the supplement of paper PMC10567573.

B1: TRIM55 (parent)
chain: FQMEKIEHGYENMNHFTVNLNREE

# Variants of: B1
# ASSAY_DETAILS: protein stability index of a GFP-peptide fusion (GPS, HEK-293T) (PSI 1-6); higher = more stable;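 note: lentivirally expressed fusions sorted by FACS into six bins by GFP to DsRed ratio, PSI derived from sequencing read proportions per bin multiplied by bin number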
# TEST_PARAMETERS: c terminus: a fixed tail appended
Exercise: for every item that follows, state its recorded protein stability index.
Write the number on its own, no unit after it.

Form field: reported protein stability index of FQMEKIEHGYENMNKFTVNLNREE
3.15

Form field: reported protein stability index of SQMEKIEHGYENMNHFTVNLNREE
4.48

Form field: reported protein stability index of FQMEKIEHGEENMNHFTVNLNREE
3.74

Form field: reported protein stability index of FQMEKIEHGYENMNHFTVNLNWEE
2.59

Form field: reported protein stability index of FQMEKIEHGYENMNHFTVNLMREE
2.1

Form field: reported protein stability index of FQMEKIEHGYENMNHFTVNLNREA
2.27

Form field: reported protein stability index of FQMEKIEHGYENMNHFTVDLNREE
3.37

Form field: reported protein stability index of FQMEKIEHGYENMYHFTVNLNREE
3.78

Form field: reported protein stability index of FQMEKIEHGVENMNHFTVNLNREE
3.35

Form field: reported protein stability index of FQMEKIEHGYENMHHFTVNLNREE
1.69

Form field: reported protein stability index of FQMEKIEHGYENMNHFTVNLNLEE
1.96

Form field: reported protein stability index of FQMEKIEHGYENMNHFTVNLNHEE
2.64

Form field: reported protein stability index of FQMEKIEHGYENMNHFTWNLNREE
1.69

Form field: reported protein stability index of FQMEWIEHGYENMNHFTVNLNREE
2.41

Form field: reported protein stability index of FQMEKIEHGYENCNHFTVNLNREE
2.93

Form field: reported protein stability index of FQMEKIEHGYENMNRFTVNLNREE
3.12

Form field: reported protein stability index of FQMEKIEHMYENMNHFTVNLNREE
2.45

Form field: reported protein stability index of YQMEKIEHGYENMNHFTVNLNREE
3.3

Form field: reported protein stability index of FQMEKIEHGYENMNHFTSNLNREE
3.77

Form field: reported protein stability index of FQMEKIEHGYENMKHFTVNLNREE
2.99

Form field: reported protein stability index of FQMEKIEHGYENMNHITVNLNREE
3.65

Form field: reported protein stability index of FQMEKIEHGYGNMNHFTVNLNREE
2.14
